Please provide measured ECL signal for the entries that follow.
- SYSTEM: DR4G90: Human HLA-DRA1*01:02/DRB1*04:01 ECD with collagen II peptide CII_1236-1249 (human)
- PROTOCOL DETAILS: MSD ECL; antigen coated; mAb 0.2 µg/ml
Numbers only, in ECL.

BINDER	UNIT OF MEASURE	ECL signal
DR4B6 (antibody, V domains shown, also called L243 re-engineered as IgG2sigma) VH: QIQLVQSGPELKKPGETVKISCKASGFTFTNYGMNWVKQAPGKGLKWMGWINTYTREPTYADDFKGRFAFSLETSASTAYLQINNLKNEDTAKYFCARDITAVVPTGFDYWGQGTTLTVSS VL: DIQMTQSPASLSVSVGETVTITCRASENIYSNLAWYRQKQGKSPQLLVFAASNLADGVPSRFSGSGSGTQYSLKINSLQSEDFGDYYCQHFWTTPWAFGGGTNLEIK	ECL	1.35e+06

Looking for the measured ECL signal of DR4B98 (antibody, human IgG2, kappa, V domains shown, also called VH DR4H50 / VL PH9L3) VH: QVQLVQSGAEVKKPGSSVKVSCKASGGTFKSYYIHWVRQAPGQGLEWMGGIAPIYGTAYYAQKFQGRVTITADESTSTAYMELSSLRSEDTAVYYCARDASWARAYGFDYWGQGTLVTVSS VL: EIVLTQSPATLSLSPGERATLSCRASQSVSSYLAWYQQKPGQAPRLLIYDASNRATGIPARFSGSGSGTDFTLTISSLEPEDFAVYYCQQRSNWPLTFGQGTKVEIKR , can you help? 890000
